Value source: ChEMBL document CHEMBL3045916

test system: Candida albicans; test: Fungicidal activity against Candida albicans ATCC 90028 after 48 hr; format: functional; settings: ATCC 90028, 48 h
measure: MFC (µg/mL)
The figure you give is taken to be in µg/mL; do not add the unit.

1) CC1(c2cc(O)ccc2O)NNC(=O)CO1 (stereo unspecified)    100

Challenge: Tell me the measured MFC of `C[C@@H]1[C@H](O)[C@@H](C)/C=C/C=C/C=C/C=C/C=C/C=C/C=C/[C@H](O[C@@H]2O[C@H](C)[C@@H](O)[C@H](N)[C@@H]2O)C[C@@H]2O[C@](O)(C[C@@H](O)C[C@@H](O)[C@H](O)CC[C@@H](O)C[C@@H](O)CC(=O)O[C@H]1C)C[C@H](O)[C@H]2C(=O)O` , please.
Response given: 25

Challenge: Entry CC1(c2cccc(O)c2)NNC(=O)CO1 (stereo unspecified) has what MFC?
Response given: 25

Challenge: Need MFC, item CC1(c2ccc(O)cc2)NNC(=O)CO1 (stereo unspecified)
Response given: 100

Challenge: Look up MFC: CC1(c2ccccc2)NNC(=O)CO1 (stereo unspecified)
Response given: 25

Challenge: Suppose we examine the molecule CC1(c2ccc(O)cc2O)NNC(=O)CO1 (stereo unspecified) ; what MFC value has been reported?
Response given: 100

----------
Recorded measurements of MBC, one per entry
test system: Staphylococcus aureus; test: Bactericidal activity against methicillin-resistant Staphylococcus aureus after 18 to 24 hr; format: functional
Quick reminder: number only, in µg/mL, skip the unit.

// below: answered molecules
1. CC1(c2ccccc2)NNC(=O)CO1 (stereo not given)    50
2. CC1(c2cc(O)ccc2O)NNC(=O)CO1 (stereo not given)    100
3. CC1(c2ccc(O)cc2O)NNC(=O)CO1 (stereo not given)    100
4. CC1(c2cccc(O)c2)NNC(=O)CO1 (stereo not given)    25

Please look at the following molecule next.
Challenge: Reported MBC for CC1(c2ccc(O)cc2)NNC(=O)CO1 (stereo not given) : what is it?
Response given: 50

----------
# maps each entry to its diameter of the inhibition zone (DIZ)
system: Pseudomonas aeruginosa; test: Antibacterial activity against Pseudomonas aeruginosa ATCC 9029 assessed as growth inhibition after 24 hr by disk diffusion method; type: functional; note: test concentration or dose not given here
State the answer as a number, implicitly in mm.

1. CC1(c2ccc(O)cc2O)NNC(=O)CO1 (stereo unspecified)    24.4
2. CC1(c2cc(O)ccc2O)NNC(=O)CO1 (stereo unspecified)    24.1
3. CC1(c2cccc(O)c2)NNC(=O)CO1 (stereo unspecified)    26.2

Challenge: Please report the recorded diameter of the inhibition zone (DIZ) for CC1(c2ccccc2)NNC(=O)CO1 (stereo unspecified) .
Response given: 24.2

Challenge: What value of diameter of the inhibition zone (DIZ) has been recorded for this entry: `O=C(O)c1cn(C2CC2)c2cc(N3CCNCC3)c(F)cc2c1=O`
Response given: 31.5

Challenge: Reported diameter of the inhibition zone (DIZ) for CC1(c2ccc(O)cc2)NNC(=O)CO1 (stereo unspecified) : what is it?
Response given: 24.4
